- Tested system: Serotonin 3 (5-HT3) receptor (Rattus norvegicus, UniProt P35563+Q9JJ16)
- Sequence (P35563 whole entry): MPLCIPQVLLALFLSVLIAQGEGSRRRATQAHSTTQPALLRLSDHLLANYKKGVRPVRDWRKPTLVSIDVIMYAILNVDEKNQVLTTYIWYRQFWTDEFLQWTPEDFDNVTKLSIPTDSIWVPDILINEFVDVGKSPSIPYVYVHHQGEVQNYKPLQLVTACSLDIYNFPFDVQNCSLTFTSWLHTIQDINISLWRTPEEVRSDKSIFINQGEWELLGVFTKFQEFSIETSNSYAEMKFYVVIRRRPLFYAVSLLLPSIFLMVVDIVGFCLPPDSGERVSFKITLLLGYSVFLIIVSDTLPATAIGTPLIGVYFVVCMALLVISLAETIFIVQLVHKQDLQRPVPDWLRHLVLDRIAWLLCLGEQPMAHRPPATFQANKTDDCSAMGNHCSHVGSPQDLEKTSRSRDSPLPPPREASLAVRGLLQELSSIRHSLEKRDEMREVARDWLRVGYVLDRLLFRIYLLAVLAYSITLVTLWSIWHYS
- Sequence (Q9JJ16 whole entry): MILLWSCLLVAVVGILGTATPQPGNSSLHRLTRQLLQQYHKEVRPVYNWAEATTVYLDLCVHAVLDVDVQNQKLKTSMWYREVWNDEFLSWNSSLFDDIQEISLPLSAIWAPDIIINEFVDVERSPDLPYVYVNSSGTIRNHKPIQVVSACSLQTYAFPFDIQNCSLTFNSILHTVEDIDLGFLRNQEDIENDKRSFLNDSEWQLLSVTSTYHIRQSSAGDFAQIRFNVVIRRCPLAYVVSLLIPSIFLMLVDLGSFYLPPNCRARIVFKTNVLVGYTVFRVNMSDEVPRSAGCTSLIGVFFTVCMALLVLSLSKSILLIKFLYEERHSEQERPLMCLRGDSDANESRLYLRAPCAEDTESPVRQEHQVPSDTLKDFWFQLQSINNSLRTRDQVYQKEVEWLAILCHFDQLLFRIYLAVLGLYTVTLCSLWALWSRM
- Run description: Concentration of compound required to inhibit the binding of radioligand [3H]GR-65630 to serotonin 5-hydroxytryptamine 3 receptor in rat cortical membrane
- Assay type: cell membranes
Result type: pIC50
One number for each entry, as −log10 of the molar value.

Incoming: Entry COc1cc(N)c(Cl)cc1C(=O)NC1CN(C)CCN(Cc2ccccc2)C1 (stereo unspecified) has what pIC50?
Outgoing: 8.68

###

- Tested system: D(2) dopamine receptor (Rattus norvegicus, UniProt P61169)
- Sequence (P61169 whole entry): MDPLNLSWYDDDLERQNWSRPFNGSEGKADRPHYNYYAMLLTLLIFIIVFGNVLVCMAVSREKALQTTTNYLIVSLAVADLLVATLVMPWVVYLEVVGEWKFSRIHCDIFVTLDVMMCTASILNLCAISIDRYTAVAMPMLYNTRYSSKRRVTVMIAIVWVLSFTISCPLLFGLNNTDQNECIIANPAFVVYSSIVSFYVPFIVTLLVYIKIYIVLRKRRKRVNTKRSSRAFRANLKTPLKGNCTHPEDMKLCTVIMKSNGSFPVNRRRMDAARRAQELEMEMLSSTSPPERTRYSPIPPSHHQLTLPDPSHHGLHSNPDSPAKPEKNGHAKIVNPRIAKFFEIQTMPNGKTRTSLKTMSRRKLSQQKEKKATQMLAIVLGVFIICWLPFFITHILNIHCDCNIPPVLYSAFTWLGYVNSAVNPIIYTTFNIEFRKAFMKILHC
- Run description: Affinity of compound towards Dopamine receptor D2 in rat striatum using [3H]spiperone as radioligand
- Assay type: tissue-based
Result type: Ki

Incoming: Please report the recorded Ki for COc1cc(N)c(Cl)cc1C(=O)NC[C@@H]1CCN2CCC[C@@H]12 .
Outgoing: > 10 µM

###

Consider the following compounds; for each one, report its pIC50.
- Tested system: Serotonin 3 (5-HT3) receptor (Rattus norvegicus, UniProt P35563+Q9JJ16)
- Run description: Concentration required to inhibit the binding of radioligand [3H]GR-65630 to serotonin 5-hydroxytryptamine-3 receptor (5-HT 3 receptor)in rat brain cortical membrane
- Type: tissue-based
Answers are plain numbers, as −log10 of the molar value.

See these solved cases before continuing.
* CCN1CCN(C)CC(NC(=O)c2cc(Br)c(NC)nc2OC)C1 (stereo unspecified) | 9.01
* CCN1CCN(C)CC(NC(=O)c2cc(Cl)cc3c2OCC3)C1 (stereo unspecified) | 7.52
* CCN1CCN(CC)CC(NC(=O)c2cc(Cl)c(NC)nc2OC)C1 | 9.19
* CCOc1nc(NC)c(Br)cc1C(=O)NC1CN(C)CCN(CC)C1 (stereo unspecified) | 8.83

Record pIC50 per entry; entries follow.
1. CCN1CCN(C)C[C@@H](NC(=O)c2cc(Br)c(NC)nc2OC)C1
2. CCN1CCN(C2CC2)CC(NC(=O)c2cc(Br)c(NC)nc2OC)C1 (stereo unspecified)
3. CCN1CCN(CC)CC(NC(=O)c2cc(Br)c(NC)nc2OC)C1
4. CCN(CC)CCNC(=O)c1cc(Cl)c(N)cc1OC [METOCLOPRAMIDE]
5. CNc1nc(OC)c(C(=O)NC2CN(C)CCN(C)C2)cc1Cl
6. CNc1nc(OC)c(C(=O)NC2CN(C)CCN(C3CC3)C2)cc1Br (stereo unspecified)
7. CCN1CCN(C)CC(NC(=O)c2[nH]nc3ccccc23)C1 (stereo unspecified)

Outgoing:
1: 8.92; 2: 9.16; 3: 9.23; 4: 6.64; 5: 8.89; 6: 9.12; 7: 8.18

###

- Tested system: 5-hydroxytryptamine receptor 4 (Cavia porcellus, UniProt O70528)
- Sequence (O70528 whole entry): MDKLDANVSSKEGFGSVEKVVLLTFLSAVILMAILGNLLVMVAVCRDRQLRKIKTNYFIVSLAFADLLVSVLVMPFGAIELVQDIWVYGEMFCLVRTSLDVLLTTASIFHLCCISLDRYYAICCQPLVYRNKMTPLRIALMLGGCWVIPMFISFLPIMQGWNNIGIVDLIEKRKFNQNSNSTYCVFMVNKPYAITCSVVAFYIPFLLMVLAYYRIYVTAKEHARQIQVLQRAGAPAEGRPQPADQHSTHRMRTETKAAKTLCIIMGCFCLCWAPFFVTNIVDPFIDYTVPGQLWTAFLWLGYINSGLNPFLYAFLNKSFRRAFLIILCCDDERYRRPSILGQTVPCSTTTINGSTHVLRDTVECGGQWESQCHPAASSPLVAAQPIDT
- Run description: Concentration of compound required to inhibit the binding of radioligand [3H]GR-113808 to 5-hydroxytryptamine 4 receptor in guinea pig striatum
- Assay type: tissue-based
Result type: IC50

The cases that follow already have their IC50 on record.
• O=c1[nH]c2ccccc2n1CCCN1CCC(n2c(=O)[nH]c3cc(Cl)ccc32)CC1 = > 1000 nM
• COc1cc(N)c(Cl)cc1C(=O)NC1CN(C)CCN(Cc2ccccc2)C1 (stereo not drawn) = > 1000 nM

Field: next compound
Incoming: What value of IC50 has been recorded for this entry: CCN1CCN(C)C[C@@H](NC(=O)c2cc(Cl)c(NC)cc2OC)C1
Outgoing: > 1000 nM

###

- Tested system: Serotonin 3 (5-HT3) receptor (Rattus norvegicus, UniProt P35563+Q9JJ16)
- Run description: Concentration of compound required to inhibit the binding of radioligand [3H]GR-65630 to 5-hydroxytryptamine 3 receptor in rat brain cortical membrane
- Format: cell membranes
Result type: IC50
Reply with the number and its unit after it.

Incoming: Fill in the blank: the reported IC50 of CCN1CCN(C)CC(NC(=O)c2cnc(NC)nc2OC)C1 (stereo unspecified) is ____.
Outgoing: 157 nM

###

- Tested system: Serotonin 3 (5-HT3) receptor (Rattus norvegicus, UniProt P35563+Q9JJ16)
- Run description: Concentration required to inhibit the binding of radioligand [3H]GR-65630 to serotonin 5-hydroxytryptamine-3 receptor (5-HT 3 receptor)in rat brain cortical membrane
- Type: tissue-based
pIC50: −log10 of the molar value.
Tick True if pIC50 is 8 or greater. Tick False if pIC50 is less than 8.

* CCN1CCN(C)C[C@@H](NC(=O)c2cc(Cl)c(N)c3c2OCC3)C1 | True

Incoming: Check this compound for pIC50 at or above 8: CCOc1nc(NC)c(Cl)cc1C(=O)NC1CN(C)CCN(CC)C1 (stereo unspecified)
Outgoing: True

Incoming: // inclusive: pIC50 at least 8? input: CCN1CCN(C)C[C@H](NC(=O)c2cc(Br)c(NC)nc2OC)C1
Outgoing: True

Incoming: Decide: is the reported value of pIC50 for CCN1CCN(C)CC(NC(=O)c2cc(Cl)cn3ccnc23)C1 (stereo unspecified) equal to or greater than 8?
Outgoing: False

Incoming: API: above_or_equal(metric=pIC50, cutoff=8) for item CCN1CCN(C)CC(NC(=O)c2cc(Cl)cc3c2OCC(=O)N3C)C1 (stereo unspecified)
Outgoing: False

Incoming: Quick check: does CCN1CCN(C)C[C@@H](NC(=O)c2cc(Cl)c(OC)nc2NC)C1 have pIC50 greater than or equal to 8?
Outgoing: False

###

- Tested system: D(2) dopamine receptor (Rattus norvegicus)
- Run description: Concentration of compound required to inhibit the binding of radioligand [3H]-spiperone to Dopamine receptor D2 in rat striatum
- Type: tissue-based
Result type: IC50

Incoming: If you can, please state the reported IC50 value of COc1cc(N)c(Cl)cc1C(=O)NC1CN(C)CCN(Cc2ccccc2)C1 (stereo unspecified) .
Outgoing: > 1000 nM

###

- Tested system: D(2) dopamine receptor (Rattus norvegicus)
- Run description: Inhibition of the binding of radioligand [3H]spiperone to dopamine receptor D2 in rat brain synaptic membrane
- Assay type: cell membranes
Under this convention, 1.0 denotes IC50 strictly below 0.03 µM and 0.0 denotes IC50 at or above 0.03 µM.

Below, 8 molecules whose answers are already recorded.
• CCN1CCN(C)C[C@@H](NC(=O)c2cc(Br)c(NC)nc2OC)C1 = 1.0
• CCN1CCN(C2CC2)CC(NC(=O)c2cc(Br)c(NC)nc2OC)C1 (configuration not stated) = 1.0
• CCN1CCN(C)CC(NC(=O)c2cc(Cl)cc3c2OCC3)C1 (configuration not stated) = 0.0
• Cc1nccn1CC1CCc2c(c3ccccc3n2C)C1=O (configuration not stated) = 0.0
• CCN1CCN(C)CC(NC(=O)c2cc(Cl)cc3c2OCC(=O)N3C)C1 (configuration not stated) = 0.0
• CCN1CCN(C)CC(NC(=O)c2cnc(NC)nc2OC)C1 (configuration not stated) = 0.0
• CCOc1nc(NC)c(Br)cc1C(=O)NC1CN(C)CCN(CC)C1 (configuration not stated) = 0.0
• CCN1CCN(C)CC(NC(=O)c2cc(Cl)cn3ccnc23)C1 (configuration not stated) = 0.0

Incoming: Strictly below 0.03 µM in IC50? CCN1CCN(CC)CC(NC(=O)c2cc(Br)c(NC)nc2OC)C1
Outgoing: 1.0

Incoming: Does this molecule meet the criterion IC50 < 0.03 µM? CCN1CCN(CC)CC(NC(=O)c2cc(Cl)c(NC)nc2OC)C1
Outgoing: 1.0
